Biological target: human 4lg B7-H3 (Homo sapiens)
Test: Affinity determination by surface plasmon resonance (SPR) to 4Ig B7-H3
Conditions: SPR KD—25° C., 4Ig B7-H3; 25° C. flow cell temperature
pKd: −log10 of the molar value. Positions of bridges follow the written chain, without caps; N, C: chain ends. Non-standard residues stand in square brackets, D forms with d. Residues, ends and D or L forms follow the SMILES beside them. *: point of attachment. DOTA = O=C(O)CN1CCN(CC(=O)O)CCN(CC(=O)*)CCN(CC(=O)O)CC1; Trp(5-F) = N[C@@H](Cc1c[nH]c2ccc(F)cc12)C(=O)O; hLeu = CC(C)CC[C@H](N)C(=O)O; Nle = CCCC[C@H](N)C(=O)O; NEtG = CCNCC(=O)O; Sar = CNCC(=O)O
I'd be grateful if you could share measured pKd for these entries.

Entry CCCC[C@H](NC(C)=O)C(=O)N[C@@H](Cc1ccc(O)cc1)C(=O)N[C@H]1CSSC[C@@H](C(=O)N[C@@H](Cc2c[nH]c3ccccc23)C(=O)N[C@@H](Cc2ccccc2)C(=O)N[C@@H](CCC(=O)O)C(N)=O)NC(=O)[C@H](Cc2ccc(O)cc2)NC(=O)[C@H](C(C)C)NC(=O)[C@H](CC(=O)O)NC(=O)[C@H](Cc2ccc(O)cc2)NC(=O)[C@H](CCCCN)NC(=O)CNC(=O)[C@H](C(C)C)NC1=O [compound 34, Ac-Nle-Y-C-V-G-K-Y-D-V-Y-C-W-F-E-CONH2] (Ac-[Nle]YCVGKYDVYCWFE-NH2; disulfide 3-11) ; pKd = 8.00 to 9.00

Entry CCCC[C@H](NC(C)=O)C(=O)N[C@@H](Cc1ccc(O)cc1)C(=O)N[C@H]1CSSC[C@@H](C(=O)N[C@@H](Cc2c[nH]c3ccc(F)cc23)C(=O)N[C@@H](Cc2ccccc2)C(=O)N[C@H](C(N)=O)[C@@H](C)O)NC(=O)[C@H](Cc2ccc(O)cc2)NC(=O)[C@H](C(C)C)NC(=O)[C@H](CC(=O)O)NC(=O)[C@H](Cc2ccc(O)cc2)NC(=O)[C@H](CCCCN)NC(=O)CNC(=O)[C@H](C(C)C)NC1=O [compound 59] (Ac-[Nle]YCVGKYDVYC[Trp(5-F)]FT-NH2; disulfide 3-11) ; pKd = 8.00 to 9.00

Entry CC(=O)N[C@@H](CCC(C)C)C(=O)N[C@@H](Cc1ccc(O)cc1)C(=O)N[C@H]1CSSC[C@@H](C(=O)N[C@@H](Cc2c[nH]c3ccccc23)C(=O)N[C@@H](Cc2ccccc2)C(=O)N[C@H](C(N)=O)[C@@H](C)O)NC(=O)[C@H](Cc2ccc(O)cc2)NC(=O)[C@H](C(C)C)NC(=O)[C@H](CC(=O)O)NC(=O)[C@H](CCCCNC(=O)CN2CCN(CC(=O)O)CCN(CC(=O)O)CCN(CC(=O)O)CC2)NC(=O)[C@H](CCCCN)NC(=O)CNC(=O)[C@H](C(C)C)NC1=O [compound 144] (Ac-[hLeu]YCVGKK(DOTA)DVYCWFT-NH2; disulfide 3-11) ; pKd = 7.00 to 8.00

Entry CCCC[C@H](NC(C)=O)C(=O)N[C@@H](Cc1ccc(O)cc1)C(=O)N[C@H]1CSSC[C@@H](C(=O)N[C@@H](Cc2c[nH]c3ccccc23)C(=O)N[C@@H](Cc2ccccc2)C(N)=O)NC(=O)[C@H](Cc2ccc(O)cc2)NC(=O)[C@H](C(C)C)NC(=O)[C@H](CC(=O)O)NC(=O)[C@H](Cc2ccc(O)cc2)NC(=O)[C@H](CCCCN)NC(=O)CN(CC)C(=O)[C@H](C(C)C)NC1=O [compound 52] (Ac-[Nle]YCV[NEtG]KYDVYCWF-NH2; disulfide 3-11) ; pKd = 7.00 to 8.00

Entry CCCC[C@H](NC(C)=O)C(=O)N[C@@H](Cc1ccc(O)cc1)C(=O)N[C@H]1CSSC[C@@H](C(=O)N[C@@H](Cc2c[nH]c3ccccc23)C(=O)N[C@@H](Cc2ccccc2)C(N)=O)NC(=O)[C@H](Cc2ccc(O)cc2)NC(=O)[C@H](C(C)C)NC(=O)[C@H](CC(=O)O)NC(=O)[C@H](Cc2ccc(O)cc2)NC(=O)[C@H](CCCCN)NC(=O)CN(C)C(=O)[C@H](C(C)C)NC1=O [compound 26, Ac-Nle-Y-C-V-Sar-K-Y-D-V-Y-C-W-F-CONH2] (Ac-[Nle]YCV[Sar]KYDVYCWF-NH2; disulfide 3-11) ; pKd = 7.00 to 8.00
